Target: Metabotropic glutamate receptor 8 (Rattus norvegicus)
Experiment: mGluR8 Gi/Go-coupled signaling modulation – cell-based, rat, thallium flux, HTS, primary screen (AID 488969)
Details: HEK293 rat mGluR8, GIRK (G protein-gated inwardly rectifying potassium channel) thallium flux, FluoZin2; at 10 µM; stronger effect = higher value; submaximal glutamate (EC20) added with thallium
The full ranking holds about 110,000 compounds; the median of “z-score” is about -0.1, and the highest 2% start at about 2. The full list was thinned out, with the highest values kept by preference.
Recorded metric: z-score
Reply with the value as a number alone.

CC1Oc2ccccc2C=C1/C=N/NC(=O)c1ccccc1O (stereo unspecified) | 0.0521
CC1(C)Cc2nc3sc4c(OCc5ccccc5)ncnc4c3cc2CO1 | -0.0531
Cc1ccc(C(=O)N[C@H](C(=O)OCC(=O)NC2CCS(=O)(=O)C2)C(C)C)cc1 (stereo partly specified) | -0.0806
CC1Oc2ccccc2C=C1/C=N/NC(=O)c1ccccc1 (stereo unspecified) | 1.9
COC(=O)c1ccc(Oc2nc3c(c(=O)n(C)c(=O)n3C)n2CCC(C)C)cc1 | 1.63

Please find the next molecule below.
QUERY: Given the molecule O=C(COc1ccccc1)N1CCN(S(=O)(=O)Cc2ccccc2)CC1 , what is its reported z-score?
RESULT: 0.0406

Just for reference, PubChem BioAssay AID488969 is where these values come from.
